Kindly supply the reported melting point values for the records listed here.

The compound listed as O=c1ccn(CCO)c(C(O)c2ccc(Br)cc2)c1O (stereo unspecified) has a reported melting point of 189 to 193 °C

Record summary for `N#CCCNC(=O)c1cccc(-c2ccc3c(c2)N(CCc2ccc(Cl)cc2Cl)CC3)c1` : reported melting point = 147 to 149 °C

response.value for `c1ccc(CCN2CCc3[nH]c4ccc5scc(-c6ccccc6)c5c4c3C2)cc1` (field: melting point) = 220 to 221 °C

Please fill in: melting point reported for `N#Cc1ccc(Oc2c(Cl)cc(Cl)cc2Cl)cc1Cl` = 108 to 116 °C

Lookup result for `COc1ccc2c(c1)Sc1cc(C#N)ccc1N2` ; measured melting point: 198 to 199 °C

According to the records, this compound `CC(C)[C@@H](C(=O)NCCCC(c1ccc(F)cc1)c1ccc(F)cc1)N(C)C1CCCCC1` displays melting point of 82 to 86 °C

Item: `Nc1nccc(-c2c[nH]c3nccc(-c4ccccc4)c23)n1` | melting point: > 210 °C

melting point in this record for `CC(=O)Nc1c(C(=O)c2ccc(Cl)cc2)[nH]c2cc(Cl)ccc12` : 175 to 176 °C

The measured melting point associated with CCC(CC(=O)OC)Sc1c(C(N)=O)sc2ccc(OC)cc12 (stereo unspecified) reads 134 to 136 °C

Per the records, this compound ( `CCn1cc(Br)nc(N)c1=O` ) has melting point equal to 227 to 230 °C

# melting point (compound: COc1cc(NC(=O)OC(C)CN2CCC(c3nn(C)c4cc(F)ccc34)CC2)cc(OC)c1OC (stereo unspecified) ) is 74 to 77 °C

Item: O=C(O)C1CC=C(c2c(-c3ccccc3)[nH]c3ccccc23)CC1 (stereo unspecified) | melting point: 178 to 179 °C

Measured melting point, `CCn1c(=O)ccc2cnc(Nc3ccc(O)cc3)nc21` : 222 to 224 °C

Reported melting point for `O=c1[nH]c2c(cc1S(=O)(=O)c1ccccc1)CCc1cc[nH]c1-2` was 410 °C

Item: `CCCCCCCCc1ccc2nc(N)nc(N)c2c1C` | melting point: 262 to 264 °C

// melting point lookup, compound = CN(C)c1cccc(OC(=O)NC2C(=O)N(CCC(C)(C)C)c3ccccc3N(c3ccccc3F)C2=O)c1 (stereo unspecified) , result: 160 to 161 °C

According to the records, this compound O=[N+]([O-])c1ccc2c(c1)N[C@@H]1c3cc([N+](=O)[O-])ccc3C[C@H]21 (relative stereo) displays melting point of 174 to 176 °C

melting point reported for this compound `O=C(O)Cn1cc(-c2ccc3nnn(Cc4ccc5ncccc5c4)c3n2)cn1` : > 270 °C

# melting point (compound: `CC1(C)Cc2cccc(S(N)(=O)=O)c2S1` ) is 102 to 104 °C

Reported melting point of `O=C1CNC2=C(CCc3cc(F)ccc32)C1` : 223 to 224 °C

The compound CCCC(C)C(=O)Oc1c(I)cc(I)cc1I (stereo unspecified) showed melting point equal to 66 to 68 °C

====

Could you please report measured melting point for the items listed next?

For record `O=C(O)Cc1c(C(=O)c2ccccc2)[nH]c2cccc(Cl)c12` the listed melting point is 206 to 209 °C

The reported melting point of the molecule `Cc1oc2cc(C3CC(=O)OC(=O)C3)ccc2c1C` was 145 to 147 °C

Value of measured melting point for the entry Nc1nc(NC2Cc3ccccc3N(S(=O)(=O)c3ccc(Cl)cc3Cl)C2)c2cn[nH]c2n1 (stereo not given) : 153 to 163 °C

// `O=C(O)c1cccc(-c2ncc(O)cn2)c1` : melting point value = 293 to 295 °C

The molecule listed as `C[Si](C)(C)c1cccc(NC(=O)c2ccc(C(=O)O)cc2)c1` has a reported melting point of 211 to 213 °C
